Cited source for all entries: ChEMBL document CHEMBL5042473

# viability at 24 h, 0.1 µM per record follows
# method: Cytotoxicity against Balb/c mouse splenocytes assessed as metabolic activity at 100 nM incubated for 24 hrs by MTT assay relative to LPS-stimulated splenocytes
# Format: toxicity, cell-based, Splenocyte
# settings: read-out: Activity

- structureNotation: "O=C(NCCOCCO)c1ccc2c(c1)C(=O)c1ccc(Nc3ccc(F)cc3F)cc1CC2"
  uom: "%"
  viability at 24 h, 0.1 µM: 66
- structureNotation: "O=C(Nc1ccccc1)c1ccc2c(c1)C(=O)c1ccc(Nc3ccc(F)cc3F)cc1CC2"
  uom: "%"
  viability at 24 h, 0.1 µM: 66
- structureNotation: "O=C(O)CCCNC(=O)c1ccc2c(c1)C(=O)c1ccc(Nc3ccc(F)cc3F)cc1CC2"
  uom: "%"
  viability at 24 h, 0.1 µM: 66

====

# assaySystem: CYP1A2 (Homo sapiens, UniProt P05177)
# Sequence (P05177 whole entry): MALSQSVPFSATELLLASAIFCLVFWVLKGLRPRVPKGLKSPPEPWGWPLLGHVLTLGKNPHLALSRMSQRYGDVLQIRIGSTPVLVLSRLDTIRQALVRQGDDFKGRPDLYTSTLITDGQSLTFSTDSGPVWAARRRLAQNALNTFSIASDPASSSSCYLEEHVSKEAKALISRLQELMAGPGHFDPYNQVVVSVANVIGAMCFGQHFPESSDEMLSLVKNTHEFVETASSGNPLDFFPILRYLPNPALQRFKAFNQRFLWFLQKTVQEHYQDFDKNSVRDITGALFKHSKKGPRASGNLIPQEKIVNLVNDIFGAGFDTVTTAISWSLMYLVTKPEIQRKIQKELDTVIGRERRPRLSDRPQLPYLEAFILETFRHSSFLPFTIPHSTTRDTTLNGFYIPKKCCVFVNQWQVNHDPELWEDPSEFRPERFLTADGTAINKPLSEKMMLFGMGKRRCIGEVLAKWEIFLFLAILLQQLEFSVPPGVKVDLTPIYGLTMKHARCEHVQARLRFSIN
# method: Inhibition of human recombinant CYP1A2 at 10 uM relative to control
# Type: ADME

- structureNotation: "COC(=O)CCNC(=O)c1ccc2c(c1)C(=O)c1ccc(Nc3ccc(F)cc3F)cc1CC2"
  inhibition at 10 µM / %: 27.3
- structureNotation: "O=C(NCCN1CC2(COC2)C1)c1ccc2c(c1)C(=O)c1ccc(Nc3ccc(F)cc3F)cc1CC2"
  inhibition at 10 µM / %: 0
- structureNotation: "Nc1ccccc1Nc1ccc2c(c1)CCc1ccc(C(=O)NCCC(=O)O)cc1C2=O"
  inhibition at 10 µM / %: 28.1
- structureNotation: "COC(=O)CCCNC(=O)c1ccc2c(c1)C(=O)c1ccc(Nc3ccc(F)cc3F)cc1CC2"
  inhibition at 10 µM / %: 11.6
- structureNotation: "O=C(O)CCCNC(=O)c1ccc2c(c1)C(=O)c1ccc(Nc3ccc(F)cc3F)cc1CC2"
  inhibition at 10 µM / %: 16.2
- structureNotation: "O=C(O)CCNC(=O)c1ccc2c(c1)C(=O)c1ccc(Nc3ccc(F)cc3F)cc1CC2"
  inhibition at 10 µM / %: 33.6

====

# log10 IC50 per record follows
# assaySystem: Mitogen-activated protein kinase 14 (Homo sapiens, UniProt Q16539)
# Sequence (Q16539 whole entry): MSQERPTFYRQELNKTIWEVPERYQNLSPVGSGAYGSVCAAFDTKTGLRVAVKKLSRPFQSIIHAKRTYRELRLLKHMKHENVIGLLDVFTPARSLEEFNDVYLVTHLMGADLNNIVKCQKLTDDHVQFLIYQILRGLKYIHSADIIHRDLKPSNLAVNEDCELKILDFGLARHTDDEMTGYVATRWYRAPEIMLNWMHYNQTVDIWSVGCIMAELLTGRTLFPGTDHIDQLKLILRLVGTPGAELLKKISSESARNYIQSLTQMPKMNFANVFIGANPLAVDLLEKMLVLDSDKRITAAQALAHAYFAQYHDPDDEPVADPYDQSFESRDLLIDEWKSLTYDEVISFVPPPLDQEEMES
# method: Inhibition of human p38 MAPK alpha incubated for 1 hr by photometric method
measuredEndpoint: log10 IC50 (log10 of the value in nM)

- structureNotation: "O=C(NCCN1CC2(COC2)C1)c1ccc2c(c1)C(=O)c1ccc(Nc3ccc(F)cc3F)cc1CC2"
  testResult: 0.77
- structureNotation: "O=C(N[C@@H](Cc1ccccc1)C(=O)O)c1ccc2c(c1)C(=O)c1ccc(Nc3ccc(F)cc3F)cc1CC2"
  testResult: 1.56
- structureNotation: "O=C(NCCc1cccs1)c1ccc2c(c1)C(=O)c1ccc(Nc3ccc(F)cc3F)cc1CC2"
  testResult: 0.81
- structureNotation: "O=C(NCCOCCO)c1ccc2c(c1)C(=O)c1ccc(Nc3ccc(F)cc3F)cc1CC2"
  testResult: 1.00
- structureNotation: "O=C(NCCc1c[nH]cn1)c1ccc2c(c1)C(=O)c1ccc(Nc3ccc(F)cc3F)cc1CC2"
  testResult: 0.75
- structureNotation: "COC(=O)CNC(=O)c1ccc2c(c1)C(=O)c1ccc(Nc3ccc(F)cc3F)cc1CC2"
  testResult: 1.08
- structureNotation: "CN(CCc1ccccc1)C(=O)c1ccc2c(c1)C(=O)c1ccc(Nc3ccc(F)cc3F)cc1CC2"
  testResult: 2.59
- structureNotation: "CNC(=O)c1ccc2c(c1)C(=O)c1ccc(Nc3ccccc3N)cc1CC2"
  testResult: 0.76
- structureNotation: "COC(=O)[C@H](CCSC)NC(=O)c1ccc2c(c1)C(=O)c1ccc(Nc3ccc(F)cc3F)cc1CC2"
  testResult: 0.84

====

# assaySystem: Mitogen-activated protein kinase 14 (Homo sapiens)
# method: Inhibition of human p38 MAPK alpha incubated for 1 hr by photometric method
pIC50: −log10 of the molar value.
measuredEndpoint: pIC50

- compound: "CC(C)(C)OC(=O)N1CCN(CCNC(=O)c2ccc3c(c2)C(=O)c2ccc(Nc4ccccc4N)cc2CC3)CC1"
  testResult: 8.72
- compound: "Nc1ccccc1Nc1ccc2c(c1)CCc1ccc(C(=O)NCCO)cc1C2=O"
  testResult: 7.85
- compound: "NC(=O)c1ccc2c(c1)C(=O)c1ccc(Nc3ccccc3N)cc1CC2"
  testResult: 8.21
- compound: "COC(=O)CCNC(=O)c1ccc2c(c1)C(=O)c1ccc(Nc3ccc(F)cc3F)cc1CC2"
  testResult: 8.92
- compound: "O=C(O)CC[C@H](NC(=O)c1ccc2c(c1)C(=O)c1ccc(Nc3ccc(F)cc3F)cc1CC2)C(=O)O"
  testResult: 8.10
- compound: "O=C(O)CCNC(=O)c1ccc2c(c1)C(=O)c1ccc(Nc3ccc(F)cc3F)cc1CC2"
  testResult: 8.26
- compound: "Nc1ccccc1Nc1ccc2c(c1)CCc1ccc(C(=O)NCCc3ccccc3)cc1C2=O"
  testResult: 7.70
- compound: "Nc1ccccc1Nc1ccc2c(c1)CCc1ccc(C(=O)NCC(O)CO)cc1C2=O (centres undefined)"
  testResult: 7.82
- compound: "COC(=O)[C@H](CCSC)NC(=O)c1ccc2c(c1)C(=O)c1ccc(Nc3ccccc3N)cc1CC2"
  testResult: 7.89

====

# assaySystem: CYP2C9 (Homo sapiens)
# Sequence (P11712 whole entry): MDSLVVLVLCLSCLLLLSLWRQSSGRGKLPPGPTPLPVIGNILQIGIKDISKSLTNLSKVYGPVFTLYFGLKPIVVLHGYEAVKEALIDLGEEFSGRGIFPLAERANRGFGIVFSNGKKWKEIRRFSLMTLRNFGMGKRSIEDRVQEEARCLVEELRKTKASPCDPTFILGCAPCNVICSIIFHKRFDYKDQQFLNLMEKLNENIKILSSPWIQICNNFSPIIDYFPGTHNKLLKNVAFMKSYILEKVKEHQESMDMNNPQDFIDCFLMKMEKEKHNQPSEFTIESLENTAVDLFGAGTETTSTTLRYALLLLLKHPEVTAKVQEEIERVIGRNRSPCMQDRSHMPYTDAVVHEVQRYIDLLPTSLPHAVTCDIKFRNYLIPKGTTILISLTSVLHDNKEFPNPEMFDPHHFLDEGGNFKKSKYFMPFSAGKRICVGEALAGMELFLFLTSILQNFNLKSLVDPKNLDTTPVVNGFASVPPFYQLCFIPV
# method: Inhibition of human recombinant CYP2C9 at 10 uM relative to control
# Type: ADME
Label label 1 when inhibition at 10 µM is at or above 70%; otherwise label label 0.

- structureNotation: "O=C(O)CCNC(=O)c1ccc2c(c1)C(=O)c1ccc(Nc3ccc(F)cc3F)cc1CC2"
  assignedLabel: "label 1"
- structureNotation: "Nc1ccccc1Nc1ccc2c(c1)CCc1ccc(C(=O)NCCC(=O)O)cc1C2=O"
  assignedLabel: "label 0"
- structureNotation: "O=C(NCCN1CC2(COC2)C1)c1ccc2c(c1)C(=O)c1ccc(Nc3ccc(F)cc3F)cc1CC2"
  assignedLabel: "label 1"
- structureNotation: "COC(=O)CCNC(=O)c1ccc2c(c1)C(=O)c1ccc(Nc3ccc(F)cc3F)cc1CC2"
  assignedLabel: "label 1"
- structureNotation: "O=C(O)CCCNC(=O)c1ccc2c(c1)C(=O)c1ccc(Nc3ccc(F)cc3F)cc1CC2"
  assignedLabel: "label 0"

====

# method: Ratio of drug concentration in mouse C57BL/6 brain to plasma at 0.4 mg/kg, po measured at 2 hrs by LC-MS/MS analysis
# Type: ADME, organism-based
# settings: C57BL/6, mouse, brain and plasma
measuredEndpoint: Kp at 2 h

- structureNotation: "Nc1ccccc1Nc1ccc2c(c1)CCc1ccc(C(=O)NCCC(=O)O)cc1C2=O"
  testResult: 4.7

====

# method: Drug concentration in rat plasma at 4.5 mg/kg, po measured after 1 hrs by LC/MS/MS analysis
# Type: ADME, organism-based
measuredEndpoint: concentration at 1 h (µg/mL)

- compound: "O=c1ncn2nc(Sc3ccc(F)cc3F)ccc2c1-c1c(Cl)cccc1Cl [NEFLAMAPIMOD]"
  testResult: 0.092

====

# method: Drug concentration in mouse C57BL/6 brain at 0.4 mg/kg,po measured at 4 hrs by LC-MS/MS analysis
# Format: ADME, organism-based
# settings: C57BL/6, mouse, read-out: Drug uptake
measuredEndpoint: concentration at 4 h (nM)

- structureNotation: "Nc1ccccc1Nc1ccc2c(c1)CCc1ccc(C(=O)NCCC(=O)O)cc1C2=O"
  measuredEndpoint: "concentration at 4 h"
  uom: "nM"
  testResult: 540

====

# assaySystem: Mitogen-activated protein kinase 14 (Homo sapiens)
# method: Inhibition of human p38 MAPK alpha incubated for 1 hr by photometric method
pIC50: −log10 of the molar value.

- structureNotation: "CN(C)C(=O)c1ccc2c(c1)C(=O)c1ccc(Nc3ccc(F)cc3F)cc1CC2"
  sign: "="
  pIC50: 7.02
- structureNotation: "O=C(NCCCc1ccccc1)c1ccc2c(c1)C(=O)c1ccc(Nc3ccc(F)cc3F)cc1CC2"
  sign: "="
  pIC50: 7.30
- structureNotation: "CCCCCCCCCCCCCCCCNC(=O)c1ccc2c(c1)C(=O)c1ccc(Nc3ccc(F)cc3F)cc1CC2"
  sign: "<"
  pIC50: 6.00
- structureNotation: "O=C(NO)c1ccc2c(c1)C(=O)c1ccc(Nc3ccc(F)cc3F)cc1CC2"
  sign: "="
  pIC50: 8.28
- structureNotation: "O=C(NCCc1ccc(O)cc1)c1ccc2c(c1)C(=O)c1ccc(Nc3ccc(F)cc3F)cc1CC2"
  sign: "="
  pIC50: 8.11
- structureNotation: "O=C(NC(CO)(CO)CO)c1ccc2c(c1)C(=O)c1ccc(Nc3ccc(F)cc3F)cc1CC2"
  sign: "="
  pIC50: 8.52
- structureNotation: "O=C1c2ccc(Nc3ccc(F)cc3F)cc2CCc2ccc(C(=O)N3CCCCC3)cc21"
  sign: "="
  pIC50: 6.92
- structureNotation: "O=C(Nc1ccccc1)c1ccc2c(c1)C(=O)c1ccc(Nc3ccc(F)cc3F)cc1CC2"
  sign: "="
  pIC50: 8.62
- structureNotation: "O=C(NCCc1c[nH]c2ccccc12)c1ccc2c(c1)C(=O)c1ccc(Nc3ccc(F)cc3F)cc1CC2"
  sign: "="
  pIC50: 7.55
- structureNotation: "COC(=O)[C@H](Cc1ccccc1)NC(=O)c1ccc2c(c1)C(=O)c1ccc(Nc3ccc(F)cc3F)cc1CC2"
  sign: "="
  pIC50: 7.82
- structureNotation: "CSCC[C@H](NC(=O)c1ccc2c(c1)C(=O)c1ccc(Nc3ccc(F)cc3F)cc1CC2)C(=O)O"
  sign: "="
  pIC50: 7.96
- structureNotation: "Nc1ccccc1Nc1ccc2c(c1)CCc1ccc(C(=O)NCCCC[C@H](N)C(=O)O)cc1C2=O"
  sign: "="
  pIC50: 7.77
- structureNotation: "COC(=O)CC[C@H](NC(=O)c1ccc2c(c1)C(=O)c1ccc(Nc3ccccc3N)cc1CC2)C(=O)OC"
  sign: "="
  pIC50: 7.77
- structureNotation: "COC(=O)[C@@H](N)CCCCNC(=O)c1ccc2c(c1)C(=O)c1ccc(Nc3ccc(F)cc3F)cc1CC2"
  sign: "="
  pIC50: 8.68
- structureNotation: "NCCNC(=O)c1ccc2c(c1)C(=O)c1ccc(Nc3ccc(F)cc3F)cc1CC2"
  sign: "="
  pIC50: 8.60
- structureNotation: "Nc1ccccc1Nc1ccc2c(c1)CCc1ccc(C(=O)NCCc3cnc[nH]3)cc1C2=O"
  sign: "="
  pIC50: 7.59
- structureNotation: "NC(=O)CCNC(=O)c1ccc2c(c1)C(=O)c1ccc(Nc3ccc(F)cc3F)cc1CC2"
  sign: "="
  pIC50: 8.21
- structureNotation: "O=C(NCC(F)(F)F)c1ccc2c(c1)C(=O)c1ccc(Nc3ccc(F)cc3F)cc1CC2"
  sign: "="
  pIC50: 8.46
